assay: qHTS for Inhibitors of human tyrosyl-DNA phosphodiesterase 1 (TDP1): qHTS in cells in absence of CPT; also: nearly all actives have a fitted effect of over 55% in size
condition.details: DT40 Tdp1-/- hTDP1 cells, no CPT, ATP luminescence, 48 h
In all, about 420,000 compounds went through this assay and about 64,000 (15%) were called active. Inconclusive results (about 27%) are left out. The list is a sample of the results.

{"compound": "CNS(=O)(=O)c1cccc(C(=O)OCC(=O)N2c3ccccc3NC(=O)C2(C)C)c1", "outcome": "inactive"}
{"compound": "O=C(O)COc1ccc(/C=N/O)cc1Br", "outcome": "inactive"}
{"compound": "COc1ccccc1NC(=O)C1=C(C)Nc2ncnn2C1c1ccc(C)o1 (stereo not drawn)", "outcome": "inactive"}
